Values from paper PMC10436550

- procedure.summary: Toxicokinetics, plasma LPM3480392 after intravenous administration
- Format: in vivo, Sprague Dawley (SD) rats
- condition.details: male, Sprague-Dawley, rat, plasma, iv, 0.6 mg/kg/day, 0.6 mg/kg/day iv; 1st dosing day; M; read-out: AUC0–12h
reported.property: AUC(0-t) (ng·h/mL)
Give just the number in ng·h/mL; leave the unit off.

Problem: Fill blank: measured AUC(0-t) of the compound Fc1ccc([C@]2(CCNCc3cccc(Cl)c3)CCO[C@]3(CCOC3)C2)nc1 is ____.
Result: 310

----------
- procedure.summary: Toxicokinetics, plasma LPM3480392 after intravenous administration
- Type: in vivo, Sprague Dawley (SD) rats
- condition.details: male, Sprague-Dawley, rat, plasma, intravenous, 0.6 mg/kg/day, 0.6 mg/kg/day iv; 28th dosing day; M; read-out: C2min (The 2nd dosing)
reported.property: concentration at 2 min (ng/mL)
// note: answer is a bare numeric in ng/mL

Problem: Look at this molecule and give its reported concentration at 2 min. Fc1ccc([C@]2(CCNCc3cccc(Cl)c3)CCO[C@]3(CCOC3)C2)nc1 [LPM3480392]
Result: 77.9
